test system: K562; assay: NCI tumour cell line growth inhibition, 48 h
The source made the active and inactive calls. Rule as the data show it: active = GI50 up to about 1.1 µM and inactive = higher.
// one of Yes for active, No for inactive, no free text

Record excerpt, results attached:
COc1cc(CNC(=O)CCCCCCCC/C=C/Br)ccc1O | No
CC(C)(C)C(=O)OCC1CCC(n2cnc3c(=O)[nH]c(N)nc32)O1 (configuration not stated) | No
COC(=O)c1ccc(/C=C/c2cc(O)ccc2O)cc1 | Yes
CC1=CC(=O)N(c2c(C)cccc2Cl)C(C)N1 (configuration not stated) | No

Call for entry COc1ccccc1NC(=O)CC(=O)N/N=C/c1ccc(N(CCC#N)S(=O)(=O)c2ccccc2)cc1 :
No

And for N/C(=N\Nc1ccc(S(N)(=O)=O)cc1)c1cnccn1 ?
No

And for COc1cccc2c1C(=O)c1c(O)c3c(c(O)c1C2=O)C[C@](O)(C(=O)CO)CC3OC1CC(N)C(OC2CCCCO2)C(C)O1 (some centres not stated) ?
Yes

And for CC(=O)Oc1c(C)c2c(c3ccccc13)OC(C)(C)C2 ?
No

And for O=C(NCCCl)Nc1cccnc1 ?
No
